Tested on: APAE001 (ATCC27853)
Run description: MIC broth microdilution, APAE001
Assay type: cell-based, P. aeruginosa
Stated conditions: Pseudomonas aeruginosa, ATCC27853, read-out: MIC APAE001, APAE001 is ATCC27853
# MIC listing for each entry below

Consider the reported MIC for these compounds:
C[C@@H](N)[C@H](NC(=O)c1ccc(/C=C/C#Cc2ccccc2Cl)cc1)C(=O)NO	2 to 16 µg/mL
O=CN(O)CCNC(=O)c1ccc(C#Cc2ccc(CN3CCOCC3)cc2)cc1	> 64 µg/mL
CO[C@H](C)[C@H](NC(=O)c1ccc(/C=C/C#Cc2ccc(CO)cc2)cc1)C(=O)NO	< 2 µg/mL
COC1CCN(Cc2ccc(C#Cc3ccc(C(=O)N[C@H](C(=O)NO)[C@@H](C)N)cc3)cc2)CC1	< 2 µg/mL
C[C@@H](N)[C@H](NC(=O)c1ccc(C#CC#Cc2ccccn2)cc1)C(=O)NO	< 2 µg/mL

## Task Requested read-out: MIC. Entry: CCNCc1ccc(C#Cc2ccc(C(=O)N[C@H](C(=O)NO)[C@@H](C)N)cc2)cc1
## Result < 2 µg/mL

## Task Now the compound O=C(NC(C(=O)NO)C1CCOCC1)c1ccc(C#Cc2ccc(CN3CCOCC3)cc2)cc1 (stereo not drawn)
## Result 2 to 16 µg/mL

## Task Now the compound O=C(CNC1CC1)NC[C@H](NC(=O)c1ccc(C#C/C=C/c2ccc(CN3CCOCC3)cc2)cc1)C(=O)NO
## Result 2 to 16 µg/mL
